Ref: PubChem BioAssay

test system: Inhibin beta A chain (activin A); assay: INHBA (activin A) binders on microarrays, primary screen, biochemical, small-molecule microarray, 635 nm fluorescence scan (AID 1107); details: small-molecule microarray binding, higher = more signal;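 further: mouse activin A protein probed at 4.33 µg/mL on printed slides; score merges bound-protein fluorescence near 667 nm with spot signal-to-noise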
metricName: composite z-score

Reported composite z-score, compound C=CCC(OC(C)=O)[C@@H]1[C@@H](N(Cc2ccc(-c3cccc(C(F)(F)F)c3)o2)C(=O)c2ccc(C)cc2)c2cc(OCCCO)ccc2N1C(=O)c1ccc2ccccc2c1 (some centres not stated) : ____ 1.01

----------
Items are presented alongside their recorded composite z-score.
test system: Plasmodium falciparum Sir2 (PF13_0152, Sir2A); test: pfSir2 binders on small-molecule microarrays, primary screen, biochemical, small-molecule microarray, 635 nm fluorescence (AID 1098); settings: small-molecule microarray binding, fluorescence 635 nm; higher = more signal;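 further: score merges spot fluorescence intensity with its signal-to-noise ratio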
Quick one: just the number, no unit, thanks!

>  <compoundStructure>
COc1ccc(CN(C2=CC[C@@]3(C(N)=O)C(=O)C(Cl)=C(Cl)C(=O)[C@@]3(C#N)C2)S(=O)(=O)c2ccc(Br)cc2)cc1

>  <composite z-score>
-0.201

$$$$
>  <compoundStructure>
COC(=O)[C@@]1(Cc2ccccc2)[C@H]2c3cc(C(=O)N(C)C)n(CCN4CNCC4=O)c3C[C@H]2CN1C(=O)c1ccccc1

>  <composite z-score>
1.59

$$$$
>  <compoundStructure>
C=C[C@@H](OC)[C@H](OC(=O)Nc1ccc(SC)cc1)c1ccc(O)c(F)c1

>  <composite z-score>
1.2

$$$$

Reported composite z-score, compound C[N+](C)(C)CCCCCCNC(=O)[C@H]1C[C@H]2C(=O)N[C@@H](Cc3ccccc3)C(=O)N2[C@H]1c1ccc(O)cc1 : ____ 1.27
